- target: His6-CRBN/DDB1 (Homo sapiens)
- Sequence (Q96SW2 whole entry): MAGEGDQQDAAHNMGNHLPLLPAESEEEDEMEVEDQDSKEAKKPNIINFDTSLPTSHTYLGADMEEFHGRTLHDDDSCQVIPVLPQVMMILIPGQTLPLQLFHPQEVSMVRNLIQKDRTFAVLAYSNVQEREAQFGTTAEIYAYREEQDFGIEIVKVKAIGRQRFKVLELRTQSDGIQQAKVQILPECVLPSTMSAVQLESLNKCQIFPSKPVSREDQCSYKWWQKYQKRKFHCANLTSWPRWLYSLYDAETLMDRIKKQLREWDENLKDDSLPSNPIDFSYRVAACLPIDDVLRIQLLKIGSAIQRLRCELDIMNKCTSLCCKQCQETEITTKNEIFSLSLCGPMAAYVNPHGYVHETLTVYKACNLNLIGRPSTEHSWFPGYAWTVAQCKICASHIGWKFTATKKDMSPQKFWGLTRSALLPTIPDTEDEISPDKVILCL
- Sequence (Q16531 whole entry partner): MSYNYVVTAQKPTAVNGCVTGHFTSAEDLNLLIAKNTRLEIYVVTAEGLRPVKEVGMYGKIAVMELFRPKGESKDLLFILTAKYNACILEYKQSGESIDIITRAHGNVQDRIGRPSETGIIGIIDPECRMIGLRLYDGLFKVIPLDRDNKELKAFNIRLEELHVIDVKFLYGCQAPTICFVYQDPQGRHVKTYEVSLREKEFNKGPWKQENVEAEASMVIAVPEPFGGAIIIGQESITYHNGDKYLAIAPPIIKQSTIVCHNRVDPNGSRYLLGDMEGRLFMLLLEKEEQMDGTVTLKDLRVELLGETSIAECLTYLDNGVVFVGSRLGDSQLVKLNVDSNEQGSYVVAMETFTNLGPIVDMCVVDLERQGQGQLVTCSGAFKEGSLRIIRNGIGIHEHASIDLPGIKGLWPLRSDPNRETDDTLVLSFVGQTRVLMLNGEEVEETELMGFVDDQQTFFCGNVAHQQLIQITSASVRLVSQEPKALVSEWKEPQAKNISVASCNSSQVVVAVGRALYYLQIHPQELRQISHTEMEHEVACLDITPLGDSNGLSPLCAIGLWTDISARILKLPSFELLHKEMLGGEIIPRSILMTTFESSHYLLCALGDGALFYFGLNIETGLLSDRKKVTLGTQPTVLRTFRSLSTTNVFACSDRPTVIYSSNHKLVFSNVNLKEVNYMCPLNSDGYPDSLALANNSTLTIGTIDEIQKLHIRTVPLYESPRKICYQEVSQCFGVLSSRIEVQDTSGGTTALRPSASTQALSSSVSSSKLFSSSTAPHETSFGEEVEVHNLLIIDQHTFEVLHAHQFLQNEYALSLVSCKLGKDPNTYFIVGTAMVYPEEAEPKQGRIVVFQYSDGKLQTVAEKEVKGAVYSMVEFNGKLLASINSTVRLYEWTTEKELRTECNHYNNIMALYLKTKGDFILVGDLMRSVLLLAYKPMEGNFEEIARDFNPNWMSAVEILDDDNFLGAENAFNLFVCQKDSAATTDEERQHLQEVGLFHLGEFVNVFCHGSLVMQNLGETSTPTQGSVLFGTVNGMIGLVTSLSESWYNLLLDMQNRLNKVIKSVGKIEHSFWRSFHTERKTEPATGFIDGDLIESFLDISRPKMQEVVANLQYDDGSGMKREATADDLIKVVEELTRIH
- method: TR-FRET ligand displacement assay (Thal-FITC tracer) with His6-CRBN/DDB1
- measurement setup: Protein CRBN; Thalidomide-FITC tracer 50 nM; protein […]
pIC50: −log10 of the molar value.
endpoint label: pIC50

I. Cc1sc2c(c1C)C(c1ccc(Cl)cc1)=N[C@@H](CC(=O)NCCCCCCCCC(=O)N[C@@H](Cc1ccccc1)C(=O)N[C@@H]1CCC(=O)NC1=O)c1nnc(C)n1-2 [JQ1-FepicQ]
II. Cc1sc2c(c1C)C(c1ccc(Cl)cc1)=N[C@@H](CC(=O)NCCCCCCCCC(=O)N[C@@H](Cc1ccccc1)C(=O)N[C@H]1CCC(=O)NC1=O)c1nnc(C)n1-2
III. Cc1sc2c(c1C)C(c1ccc(Cl)cc1)=N[C@@H](CC(=O)NCCCCCCCCC(=O)N[C@@H](Cc1ccccc1)C(=O)N[C@H]1CC(=O)NC1=O)c1nnc(C)n1-2
Task for the reader: place the molecules above in descending order according to recorded pIC50. Output the labels ranked as instructed.
III, II, I
(III: 7.42, II: 6.86, I: 6.08)
